- EXPERIMENT: Dissociation constant determination of peptide-Tb^3+ complexes by Tb^3+ luminescence titration
- Assay type: binding
- MEASUREMENT_CONDITIONS: peptide-Tb^3+ complex; 10 μM peptide; 5 mM HEPES (pH 7.8), 100 mM NaCl
- Protocol: All experiments were conducted on a Photon Technology International fluorescence spectrometer model QM-3/2003 with a CW source and a Hamamatsu R928PMT using 10 nm excitation and emission slit widths. […] In dissociation constant determinations, the observed luminescence (photon counts s^−1) was not background-corrected and represents the raw fluorescence data. […] Spectra were acquired in 10 mm quartz fluorescence cells (Starna). […]
MEASURED_METRIC: Kd (µM)
Could you give me the number in µM? Just the number is fine.

The substance Ac-DKNADGWIDAAYK-NH2 [non-phosphorylated pKID-pTyr12, control peptide with Tyr at residue 12] showed Kd equal to 6470

// Ac-DKNADGWIDAApYK-NH2 [phosphorylated pKID-pTyr12] : Kd value = 209

Lab note: DKNADGWIDAEAK [EF Control-E11, control peptide with Glu at residue 11, reference compound] gave Kd of 1820

The recorded Kd for Ac-DKNADGWIDApYAK-NH2 [phosphorylated pKID-pTyr11, pY indicates phosphotyrosine] is 54

Query DKNADGWIDAAEK [EF Hand-E12, EF Hand consensus peptide with Glu at residue 12, reference compound] yields Kd of 88

# Kd of Ac-DKDGDGWISPAAAKpYAK-NH2 [phosphorylated pKID-pTyr15b] = 47

Entry under test: Ac-DKNADGWIDAYAK-NH2 [non-phosphorylated pKID-pTyr11, model tyrosine kinase-inducible domain peptide, Tyr at residue 11] . Its Kd was 1900

// sample Ac-DKNADGWIDAAAAKpYAK-NH2 [phosphorylated pKID-pTyr15a] , its Kd was 217

====

- EXPERIMENT: Dissociation constant determination of peptide-Tb^3+ complexes by Tb^3+ luminescence titration
- Type: binding
- MEASUREMENT_CONDITIONS: peptide-Tb^3+ complex; 2 μM peptide with 2 mM Mg^2+ and 100 μM Ca^2+
- Procedure: All experiments were conducted on a Photon Technology International fluorescence spectrometer model QM-3/2003 with a CW source and a Hamamatsu R928PMT using 10 nm excitation and emission slit widths. […] In dissociation constant determinations, the observed luminescence (photon counts s^−1) was not background-corrected and represents the raw fluorescence data. […] Spectra were acquired in 10 mm quartz fluorescence cells (Starna). […]
MEASURED_METRIC: pKd
Just so you know, pKd here is -log10 of the concentration in molar units; reply with that number alone.

Notebook: Ac-DKNADGWIDApYAK-NH2 [phosphorylated pKID-pTyr11, pY indicates phosphotyrosine] , pKd read as 4.52

====

- EXPERIMENT: Dissociation constant determination of peptide-Tb^3+ complexes by Tb^3+ luminescence titration
- Format: binding
- MEASUREMENT_CONDITIONS: peptide-Tb^3+ complex; 2 μM peptide; 5 mM HEPES (pH 7.8), 100 mM NaCl
MEASURED_METRIC: Kd (µM)
Form entry: value (µM) — number only.

Briefly, Kd measured for Ac-DKNADGWIDApYAK-NH2 [phosphorylated pKID-pTyr11, pY indicates phosphotyrosine] : 32
